# Assayed system: human CB2 receptor (Homo sapiens, UniProt P34972)
# Construct: expressed in transfected cells; host or cells: human embryonic kidney (HEK) cells, Semliki Forest Virus system, membrane preparations
# Sequence (P34972 whole entry): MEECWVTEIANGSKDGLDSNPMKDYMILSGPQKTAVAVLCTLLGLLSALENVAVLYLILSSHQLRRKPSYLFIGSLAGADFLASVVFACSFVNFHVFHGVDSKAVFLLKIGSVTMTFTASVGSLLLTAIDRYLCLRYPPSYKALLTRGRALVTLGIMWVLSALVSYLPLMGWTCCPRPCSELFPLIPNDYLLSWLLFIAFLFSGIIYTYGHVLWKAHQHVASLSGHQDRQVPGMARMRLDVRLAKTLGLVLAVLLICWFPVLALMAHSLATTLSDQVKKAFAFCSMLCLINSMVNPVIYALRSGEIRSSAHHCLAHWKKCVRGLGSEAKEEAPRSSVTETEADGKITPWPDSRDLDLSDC
# Assay summary: CB2 receptor affinity, [3H]-CP-55,940 displacement, HEK cell membranes
# Assay type: binding
# Assay conditions: 10 μM compound, radioligand [3H]-CP-55,940
Reported endpoint: inhibition at 10 µM (%)

Worked set:
O=C(NCc1nc(C(F)(F)F)no1)c1cnc(OCC(F)(F)F)c(-c2ccc(F)c(Cl)c2)c1 :: 7
Cc1cc(-c2cc(C(=O)NCc3nc(C(F)(F)F)no3)cnc2OC2CCC2)ccc1Cl :: 2
COc1cc(CNC(=O)c2cc(-c3ccc(Cl)cc3)c(OCC(F)(F)F)nn2)on1 :: 7
Cc1cc(CNC(=O)c2cc(-c3ccc(Cl)cc3)c(OCC(F)(F)F)cn2)no1 :: 43
C[C@H](Oc1ncc(C(=O)NCc2nc(C(F)(F)F)no2)cc1-c1ccc(Cl)cc1)C(F)(F)F :: -2

a: CCc1ccc(-c2cc(C(=O)NCc3nc(C(F)(F)F)no3)cnc2OCC(F)(F)F)cc1
b: CCc1nc(CNC(=O)c2cnc(OCC3CC3)c(-c3ccc(Cl)cc3)c2)cs1
Would you kindly point out which of a and b has the smaller inhibition at 10 µM figure? Answer by quoting the chosen item's label.
a
(a: -2%, b: 28%)

I: O=C(NCc1cc(C2CC2)on1)c1cc(-c2ccc(Cl)cc2)c(OCC(F)(F)F)cn1
II: O=C(NCc1nc(C(F)(F)F)no1)c1cnc(OCC(F)(F)F)c(-c2ccc(F)c(F)c2)c1
Just tell me: smaller inhibition at 10 µM value, I or II ? State your choice using its label.
II

P: O=C(NCc1cc(C2CC2)no1)c1cc(-c2ccc(Cl)cc2)c(OCC(F)(F)F)nn1
Q: CC(C)c1cc(CNC(=O)c2cnc(OCC3CC3)c(-c3ccc(Cl)cc3)c2)no1
R: COCCOc1ncc(C(=O)NCc2nc(C(F)(F)F)no2)cc1-c1ccc(F)c(F)c1
Falling order of inhibition at 10 µM, please. Answer by writing out the labels in the requested order.
Q, P, R

----------
# Assayed system: human CB2 receptor (Homo sapiens)
# Construct: expressed in transfected cells; host or cells: human embryonic kidney (HEK) cells, Semliki Forest Virus system, membrane preparations
# Assay summary: CB2 receptor affinity, [3H]-CP-55,940 displacement, HEK cell membranes
# Type: binding
# Assay conditions: 10 μM compound, radioligand [3H]-CP-55,940
Reported endpoint: inhibition at 10 µM (%)

O=C(NCc1nc(C2CC2)no1)c1cc(-c2ccc(Cl)cc2)c(OCC(F)(F)F)nn1 :: 19
CC(C)c1cc(CNC(=O)c2cnc(OCC(F)(F)F)c(-c3ccc(Cl)cc3)c2)no1 :: 11
Cc1cc(-c2cc(C(=O)NCc3csc(C4CC4)n3)ncc2OCC(F)(F)F)ccc1Cl :: 9
C[C@H](Oc1cnc(C(=O)NCc2nc(C(F)(F)F)no2)nc1-c1ccc(Cl)cc1)C(F)(F)F :: 22
CC(C)c1nc(CNC(=O)c2ccc(OCC3CC3)c(-c3ccc(Cl)cc3)n2)cs1 :: 43

A: COc1cc(CNC(=O)c2cc(-c3ccc(C)c(C)c3)c(OCC(F)(F)F)cn2)on1
B: O=C(NCc1nc(C(F)(F)F)no1)c1ccc(OCC(F)(F)F)c(-c2ccc(Cl)cc2)n1
Hey, which is lower on measured inhibition at 10 µM, A or B ? Give the label of your selection.
B
(B: 6%, A: 34%)
